Biological target: T1, EsCas13d, nuclease-dead (Eubacterium siraeum, UniProt B0MS50, R295A;H300A;R849A;H854A)
T1 sequence: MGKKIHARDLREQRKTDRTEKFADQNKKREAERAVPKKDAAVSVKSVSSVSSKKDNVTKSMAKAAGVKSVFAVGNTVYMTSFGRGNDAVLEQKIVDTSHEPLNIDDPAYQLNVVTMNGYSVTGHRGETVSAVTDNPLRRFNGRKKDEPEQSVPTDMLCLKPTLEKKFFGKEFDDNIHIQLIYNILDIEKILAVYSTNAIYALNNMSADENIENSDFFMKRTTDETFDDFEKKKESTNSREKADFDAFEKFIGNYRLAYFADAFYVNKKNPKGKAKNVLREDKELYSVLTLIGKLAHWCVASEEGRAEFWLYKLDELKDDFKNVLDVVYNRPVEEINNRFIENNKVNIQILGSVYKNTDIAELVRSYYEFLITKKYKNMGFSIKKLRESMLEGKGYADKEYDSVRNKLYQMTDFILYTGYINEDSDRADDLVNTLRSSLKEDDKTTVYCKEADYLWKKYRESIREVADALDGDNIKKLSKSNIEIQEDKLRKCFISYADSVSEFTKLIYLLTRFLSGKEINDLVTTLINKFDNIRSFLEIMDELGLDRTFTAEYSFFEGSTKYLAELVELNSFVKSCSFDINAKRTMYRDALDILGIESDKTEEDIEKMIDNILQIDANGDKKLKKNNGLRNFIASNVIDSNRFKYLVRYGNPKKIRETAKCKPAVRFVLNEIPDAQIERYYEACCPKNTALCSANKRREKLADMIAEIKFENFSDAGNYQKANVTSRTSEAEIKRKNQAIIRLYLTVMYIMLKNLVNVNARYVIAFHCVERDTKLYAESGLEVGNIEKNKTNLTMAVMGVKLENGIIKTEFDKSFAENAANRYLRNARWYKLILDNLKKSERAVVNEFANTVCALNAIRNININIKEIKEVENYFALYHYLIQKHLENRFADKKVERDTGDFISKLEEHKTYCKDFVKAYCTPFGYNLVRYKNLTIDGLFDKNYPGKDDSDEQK
Experiment: crRNA (strand 1, pre-loaded); Mg2+; 40 mM Tris-HCl pH 7.5, 150 mM NaCl, 6 mM MgCl2, 1 mM DTT, 0.1% Tween-20, 0.2 mg/ml BSA; 25 C; 10 min per concentration, then washed
Details: tags: His6-TwinStrep-SUMO cleaved; N-terminal SNAP kept (SNAP-Surface 488); label: 3' end held by stalled T7 RNA polymerase
observed_property: pKd
pKd (log units): -log10 of the concentration in mol/L.

Examples with their reported pKd follow.
[[record]]
binder = "target 1 insU 3' of 15,insC 3' of 8 (mixed) RNA 1: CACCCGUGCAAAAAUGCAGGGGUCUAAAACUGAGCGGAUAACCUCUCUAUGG RNA 2: GGGAAUGGAUCCACAUCUACGAAUUCGUACCAUAGAGUAGGUUAUCCCGCUCACCGAGAUCGGAAGAGCACACGU"
observed_property = "pKd"
observed_measurement = 7.38

[[record]]
binder = "target 1 G5A,G12A (mixed) RNA 1: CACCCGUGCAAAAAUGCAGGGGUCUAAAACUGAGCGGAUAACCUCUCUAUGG RNA 2: GGGAAUGGAUCCACAUCUACGAAUUCGUACCAUAGAGAGAUUAUCCACUCACCGAGAUCGGAAGAGCACACGU"
observed_property = "pKd"
observed_measurement = 7.99

[[record]]
binder = "target 3 U21A,U22C (mixed) RNA 1: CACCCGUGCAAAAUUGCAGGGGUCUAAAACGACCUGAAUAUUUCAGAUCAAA RNA 2: GGGAAUGGAUCCACAUCUACGAAUUCGUUCAUGAUCUGAAAUAUUCAGGUCUGCAGAUCGGAAGAGCACACGU"
observed_property = "pKd"
observed_measurement = 7.43

[[record]]
binder = "target 2 MT 5'PFS CGG 3'PFS AAU (mixed) RNA 1: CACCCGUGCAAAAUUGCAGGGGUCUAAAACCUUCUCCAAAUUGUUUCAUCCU RNA 2: GGGAAUGGAUCCACAUCUACGAAUUCCGGAGGAUGAAACAAUUUGGAGAAGAAUAGAUCGGAAGAGCACACGU"
observed_property = "pKd"
observed_measurement = 8.32

[[record]]
binder = "target 1 MT 5'PFS UAU 3'PFS UAA (mixed) RNA 1: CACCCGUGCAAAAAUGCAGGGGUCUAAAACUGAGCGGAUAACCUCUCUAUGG RNA 2: GGGAAUGGAUCCACAUCUACGAAUUCUAUCCAUAGAGAGGUUAUCCGCUCAUAAAGAUCGGAAGAGCACACGU"
observed_property = "pKd"
observed_measurement = 7.47


# input I'd like to know its pKd. The binder in question is target 1 MT 5'PFS GGC 3'PFS CCG (mixed) RNA 1: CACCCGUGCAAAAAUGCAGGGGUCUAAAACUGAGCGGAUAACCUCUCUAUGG RNA 2: GGGAAUGGAUCCACAUCUACGAAUUCGGCCCAUAGAGAGGUUAUCCGCUCACCGAGAUCGGAAGAGCACACGU
# output 8.08

# input I'd like to know its pKd. The binder in question is target 2 MT 5'PFS GCU 3'PFS CAC (mixed) RNA 1: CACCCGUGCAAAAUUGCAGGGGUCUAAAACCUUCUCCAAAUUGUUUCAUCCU RNA 2: GGGAAUGGAUCCACAUCUACGAAUUCGCUAGGAUGAAACAAUUUGGAGAAGCACAGAUCGGAAGAGCACACGU
# output 8.00

# input I'd like to know its pKd. The binder in question is target 2 MT 5'PFS AGA 3'PFS ACG (mixed) RNA 1: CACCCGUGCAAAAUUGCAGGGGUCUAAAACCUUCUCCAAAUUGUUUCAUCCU RNA 2: GGGAAUGGAUCCACAUCUACGAAUUCAGAAGGAUGAAACAAUUUGGAGAAGACGAGAUCGGAAGAGCACACGU
# output 7.99

Origin of values: paper PMC10786891
